Data credit: PubChem BioAssay (NCI)

I'd appreciate it if you could supply log10 of TGI values for the items below.
Tested on: BT-549 breast
Experiment: NCI tumour cell line growth inhibition, 48 h
// units: µM (pre-log); metric: TGI; scale: log10

- compound: "Cc1cc(N2CCOCC2)nc(N[C@@H]2CCC[C@H](Nc3ccnc4cc(Cl)ccc34)C2)n1"
  target-entity: "BT-549 breast"
  recorded-endpoint: "log10 of TGI"
  recorded-result: 0.70
- compound: "CCN(CC)c1ccc(C(O)C2=CC(=O)c3ccccc3C2=O)cc1 (stereo not given)"
  target-entity: "BT-549 breast"
  recorded-endpoint: "log10 of TGI"
  recorded-result: 0.91
- compound: "CC1(C)Cc2nc3c(cc2C(=O)C1C=N/C(C#N)=C(\\N)C#N)C(=O)C(C=N/C(C#N)=C(\\N)C#N)C(C)(C)C3 (stereo not given)"
  target-entity: "BT-549 breast"
  recorded-endpoint: "log10 of TGI"
  recorded-result: 0.74
- compound: "CCC/C(=N\\NC(=S)N1CC2CCC(CC2)C1)c1ccccn1"
  target-entity: "BT-549 breast"
  recorded-endpoint: "log10 of TGI"
  recorded-result: 0.29

Kindly note the recorded log10 of TGI for Cc1ccc(O)c(C2=CC(c3cccc(Cl)c3)SC(N)=N2)c1 (stereo not given) , which is 1.93
